- test.target: furin, P09958;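 also: purified furin at 1:10 enzyme:substrate in 50 mM HEPES pH 7.5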
- Sequence (P09958 whole entry): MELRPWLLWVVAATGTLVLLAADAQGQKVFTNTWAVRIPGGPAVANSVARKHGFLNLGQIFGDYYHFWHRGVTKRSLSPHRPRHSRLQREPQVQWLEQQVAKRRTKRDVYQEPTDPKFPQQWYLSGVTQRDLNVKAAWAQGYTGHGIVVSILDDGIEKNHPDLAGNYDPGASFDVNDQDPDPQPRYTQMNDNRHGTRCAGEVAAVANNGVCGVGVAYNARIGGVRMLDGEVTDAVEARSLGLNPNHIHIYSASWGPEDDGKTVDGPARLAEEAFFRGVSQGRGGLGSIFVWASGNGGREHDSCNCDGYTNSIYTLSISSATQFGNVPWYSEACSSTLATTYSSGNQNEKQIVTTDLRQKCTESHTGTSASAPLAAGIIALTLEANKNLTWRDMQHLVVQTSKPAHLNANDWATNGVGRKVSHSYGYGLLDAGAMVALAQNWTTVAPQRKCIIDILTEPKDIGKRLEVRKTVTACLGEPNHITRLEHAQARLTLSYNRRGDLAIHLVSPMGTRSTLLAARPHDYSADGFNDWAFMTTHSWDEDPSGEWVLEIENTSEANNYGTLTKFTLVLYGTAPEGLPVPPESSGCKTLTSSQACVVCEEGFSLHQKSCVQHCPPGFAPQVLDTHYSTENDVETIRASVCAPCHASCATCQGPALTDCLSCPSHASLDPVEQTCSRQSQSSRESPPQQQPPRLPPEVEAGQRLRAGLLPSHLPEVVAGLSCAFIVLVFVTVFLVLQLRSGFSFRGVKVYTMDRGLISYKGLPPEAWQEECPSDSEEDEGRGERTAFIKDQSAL
- assay.protocol: furin cleavage Z-score vs untreated control; higher = more cleavage, active = 3.5 or more, inactive = 1 or less, 8 variable residues between constant flanks
- condition.context: 7.5 min
The list shows a part of the results. The hit rate among all sequences tested is not known here.
property.label: furin cleavage Z-score
Returns: the value as a bare number; no unit string appended.

Query string: Name the recorded furin cleavage Z-score of the item CAHRSRKAKEAGNASASA [FS-1010] in your answer.
Result string: 1.54

Query string: Name the recorded furin cleavage Z-score of the item CAQPARSVRLAGNASASA [FS-1389] in your answer.
Result string: -0.0259

Query string: Name the recorded furin cleavage Z-score of the item CAWFCLLLLAAGNASASA [HC1657] in your answer.
Result string: -0.863

Query string: Name the recorded furin cleavage Z-score of the item CAKPAKSARSAGNASASA [FS-811] in your answer.
Result string: -0.364

Query string: Name the recorded furin cleavage Z-score of the item CALTERTKREAGNASASA [FS-1138] in your answer.
Result string: 12.3

Query string: Name the recorded furin cleavage Z-score of the item CASRPSWGPTAGNASASA [HC212] in your answer.
Result string: -1.22

Query string: Name the recorded furin cleavage Z-score of the item CARARRDPRAAGNASASA [FS-2643] in your answer.
Result string: 9.64
